This section presents compounds with their documented pIC50 values.
- Study system: Cell surface CD73 of U87 MG human glioblastoma cells (Homo sapiens, UniProt P21589)
- Construct: Cell surface CD73 catalyzes the conversion of adenosine monophosphate (AMP) to adenosine and inorganic phosphate; endogenous in cells
- Sequence (P21589 27-549): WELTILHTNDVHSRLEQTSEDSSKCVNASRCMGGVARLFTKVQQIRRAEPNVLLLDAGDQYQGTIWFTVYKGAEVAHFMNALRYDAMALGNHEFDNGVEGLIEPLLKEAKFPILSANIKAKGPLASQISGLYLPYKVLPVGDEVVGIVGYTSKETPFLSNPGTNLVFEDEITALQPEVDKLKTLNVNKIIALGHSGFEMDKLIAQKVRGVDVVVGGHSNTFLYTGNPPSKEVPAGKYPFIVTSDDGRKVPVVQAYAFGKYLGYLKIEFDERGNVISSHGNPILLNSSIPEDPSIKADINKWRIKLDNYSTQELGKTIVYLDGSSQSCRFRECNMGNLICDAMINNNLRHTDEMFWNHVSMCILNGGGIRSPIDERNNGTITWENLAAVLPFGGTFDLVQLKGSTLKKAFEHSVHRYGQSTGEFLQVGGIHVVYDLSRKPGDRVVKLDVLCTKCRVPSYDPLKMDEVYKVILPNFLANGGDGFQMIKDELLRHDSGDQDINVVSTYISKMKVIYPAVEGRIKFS
- Assay comment: CD73 Cellular Assay
- Condition details: 5000 cells per well, 30 μM AMP substrate, read-out: Potency (IC50, CD73 cellular assay)
pIC50: −log10 of the molar value.

Please review the following examples before continuing.
Report pIC50 for O=P(O)(O)CP(=O)(O)OC[C@H]1O[C@@H](c2cnc3c(N4CCCCC4)nc(Cl)nn23)[C@H](O)[C@@H]1O [Compound 43]
> 9.00

Report pIC50 for O=P(O)(O)CP(=O)(O)OC[C@H]1O[C@@H](c2cnc3c(NCc4ccccc4)ncnn23)[C@H](O)[C@@H]1O [Compound 2]
8.00 to 9.00

Report pIC50 for O=P(O)(O)CP(=O)(O)OC[C@H]1O[C@@H](c2cnc3c(NC4CCC(F)(F)CC4)nc(Cl)nn23)[C@H](O)[C@@H]1O [Compound 48]
8.00 to 9.00

Turning now to a further compound:
Report pIC50 for O=P(O)(O)CP(=O)(O)OC[C@H]1O[C@@H](c2cnc3c(NC4CCCC4)nc(Cl)nn23)[C@H](O)[C@@H]1O [Compound 5]
> 9.00
